pre-steady-state target cleavage rate overview
tested on: MIWI (PIWIL1) piRISC loaded with L1MC piRNA (30 nt); assay: pre-steady-state target cleavage rate (min^-1); higher = faster piRNA-guided slicing of the target; settings: guide: L1MC piRNA 5'p-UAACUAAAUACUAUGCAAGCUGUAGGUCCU; auxiliary factor: 500 nM mouse GTSF1;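 further: 1 nM active piRISC with 0.1 nM target library at 33 °C single turnover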
Whole data set: some 8,200 sequences, median “pre-steady-state target cleavage rate” near 0.024, cut for the highest 2% near 1.3. Shown is part of a subset that was picked to be rich in the highest values.
reported.endpoint: pre-steady-state target cleavage rate

# sequence.data, reported.endpoint, relation, experimental.value
rows = [
    ("UCCACCUACUCGUUGCAUAGUAUUUAGUAA", "pre-steady-state target cleavage rate", "=", 0.406),
    ("AGGACCUACAGUUGCAUAGUAUUUAGUUA", "pre-steady-state target cleavage rate", "=", 0.988),
    ("AGGACCUACAGCGUGCAUAGUAUUUAGUUA", "pre-steady-state target cleavage rate", "=", 1.34),
    ("UCCUGGUACAGGUUGCAUAGUAUUUACUUA", "pre-steady-state target cleavage rate", "=", 0.125),
    ("UGGACGUACAGCUUGCAUAGUAUUUUCAAA", "pre-steady-state target cleavage rate", "=", 0.213),
    ("UCCUGGAUGUCGAACCAUUGUAUAUAGUUA", "pre-steady-state target cleavage rate", "<", 0.0001),
    ("UGGACCUACAGCGUGCAUAGUAUUUAGUUA", "pre-steady-state target cleavage rate", "=", 1.43),
    ("UGGACCUACAGCUGUGCAUAGUAUUUAGUUA", "pre-steady-state target cleavage rate", "=", 1.28),
    ("UCGACCUACAGCGUGCAUAGUAUUUAGUUA", "pre-steady-state target cleavage rate", "=", 1.73),
    ("UCCACCUACAGCGUGCAUAGUAUUUAGUUA", "pre-steady-state target cleavage rate", "=", 1.06),
    ("UCCUGCUACAGCGUGCAUAGUAUUUAGUUA", "pre-steady-state target cleavage rate", "=", 1.27),
    ("AGGACCUACAGCUUGCAUAGUAUUUUCUUA", "pre-steady-state target cleavage rate", "=", 0.33),
    ("UCCUGCUACAGCUUGCUAUAGUAUUUAGUUA", "pre-steady-state target cleavage rate", "=", 0.0317),
]

----------
system: MIWI (PIWIL1) piRISC loaded with L1MC piRNA (30 nt); test: pre-steady-state target cleavage rate (min^-1); MIWI and MILI are mouse PIWI proteins and EfPiwi is from a freshwater sponge; tags in brackets are library labels; higher = faster piRNA-guided slicing of the target; settings: guide: L1MC piRNA 5'p-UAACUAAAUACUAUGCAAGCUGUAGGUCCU; auxiliary factor: none (no GTSF1);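 further: 1 nM active piRISC with 0.1 nM target library at 33 °C single turnover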
Whole data set: some 8,200 sequences, median “pre-steady-state target cleavage rate” near 0.024, cut for the highest 2% near 1.3. The list comes from a sample in which the highest values are over-represented; it also holds close analogues and randomly drawn sequences.
Classify by measured pre-steady-state target cleavage rate: fulfilled if it is equal to or exceeds 0.06, not fulfilled if it is smaller.

# sequence.data, class.name
rows = [
    ("UGGUCCUACAGCUUGCAAAGUAUUUAGUUA", "not fulfilled"),
    ("UCGUCCUACAGCUUGCAAAGUAUUUAGUUA", "not fulfilled"),
    ("AGGUCCUACAGCUUGCAAAGUAUUUAGUUA", "not fulfilled"),
    ("UCCACGAUCAGCUUGCAUAGUAUUUAGUAA", "not fulfilled"),
    ("UCCACGAUCAGCUUGCAUAGUAUUUAGAAA", "not fulfilled"),
    ("UCCAGCCUACAGCUUGCAUAGUAUUUAGUUA", "fulfilled"),
    ("UCGAGCCUACAGCUUGCAUAGUAUUUAGUUA", "fulfilled"),
    ("UCCAGCUACAGCUUGCAUAGUAUUUAGUUA", "not fulfilled"),
    ("AGGUCCUACAGCUUGCAUAGUAUUUAGUUA", "fulfilled"),
    ("AGGUCCUACAGCUUGCAUAGUAUUUAGUAA", "fulfilled"),
    ("UCGUCCUACAGCUUGCAUAGUAUUUAGUAA", "not fulfilled"),
    ("UCCUACUACAGCUUGCAUAGUAUUUAGUUA", "not fulfilled"),
    ("UCGUCCUACAGCUUGCAUAGUAUUUAGUUA", "fulfilled"),
]
